Can you tell me pKd for the items I'm about to list?
Test Target: T1, EsCas13d, nuclease-dead (Eubacterium siraeum, UniProt B0MS50, R295A;H300A;R849A;H854A)
T1 sequence: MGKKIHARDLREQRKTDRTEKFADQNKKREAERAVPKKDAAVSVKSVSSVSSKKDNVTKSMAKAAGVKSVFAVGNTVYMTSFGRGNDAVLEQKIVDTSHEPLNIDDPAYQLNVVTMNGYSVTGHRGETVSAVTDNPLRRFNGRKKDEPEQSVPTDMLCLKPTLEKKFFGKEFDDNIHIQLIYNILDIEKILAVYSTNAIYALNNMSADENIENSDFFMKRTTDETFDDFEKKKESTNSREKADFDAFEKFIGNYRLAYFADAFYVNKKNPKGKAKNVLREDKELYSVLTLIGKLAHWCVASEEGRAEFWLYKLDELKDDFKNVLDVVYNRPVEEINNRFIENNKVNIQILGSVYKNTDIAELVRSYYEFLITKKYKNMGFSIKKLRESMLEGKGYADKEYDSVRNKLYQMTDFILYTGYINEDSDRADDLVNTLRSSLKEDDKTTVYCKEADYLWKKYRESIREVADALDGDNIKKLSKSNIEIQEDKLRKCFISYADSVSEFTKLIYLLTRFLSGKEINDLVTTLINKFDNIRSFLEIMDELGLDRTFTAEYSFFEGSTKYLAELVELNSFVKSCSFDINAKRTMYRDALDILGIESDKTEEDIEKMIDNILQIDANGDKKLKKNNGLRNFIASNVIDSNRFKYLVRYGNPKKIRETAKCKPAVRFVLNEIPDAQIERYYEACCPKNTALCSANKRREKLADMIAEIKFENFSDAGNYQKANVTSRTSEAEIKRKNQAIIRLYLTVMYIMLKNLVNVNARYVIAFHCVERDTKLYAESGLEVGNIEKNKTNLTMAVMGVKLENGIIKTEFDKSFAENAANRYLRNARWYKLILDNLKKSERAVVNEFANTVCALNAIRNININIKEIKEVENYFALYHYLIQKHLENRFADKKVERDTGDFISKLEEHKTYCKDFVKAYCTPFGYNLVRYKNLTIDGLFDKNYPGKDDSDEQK
Assay Overview: crRNA (strand 1, pre-loaded); Mg2+; 40 mM Tris-HCl pH 7.5, 150 mM NaCl, 6 mM MgCl2, 1 mM DTT, 0.1% Tween-20, 0.2 mg/ml BSA; 25 C; 10 min per concentration, then washed
Reported Conditions: tags: His6-TwinStrep-SUMO cleaved; N-terminal SNAP kept (SNAP-Surface 488); label: 3' end held by stalled T7 RNA polymerase
Numbers only, as −log10 of the molar value.

// worked examples, pKd included
- Binder: "target 3 A5G,U7A (mixed) RNA 1: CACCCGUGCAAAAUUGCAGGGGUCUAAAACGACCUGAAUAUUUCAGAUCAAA RNA 2: GGGAAUGGAUCCACAUCUACGAAUUCGUUUUUGAUCUGAAAUAUACGGGUCUGCAGAUCGGAAGAGCACACGU"
  pKd: 7.43
- Binder: "target 2 MT 5'PFS AGA 3'PFS AAG (mixed) RNA 1: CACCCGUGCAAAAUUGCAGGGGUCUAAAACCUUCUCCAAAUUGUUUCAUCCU RNA 2: GGGAAUGGAUCCACAUCUACGAAUUCAGAAGGAUGAAACAAUUUGGAGAAGAAGAGAUCGGAAGAGCACACGU"
  pKd: 8.15
- Binder: "target 3 A13G,U22G (mixed) RNA 1: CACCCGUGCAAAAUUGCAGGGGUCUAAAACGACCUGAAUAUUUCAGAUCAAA RNA 2: GGGAAUGGAUCCACAUCUACGAAUUCGUUGUUGAUCUGGAAUAUUCAGGUCUGCAGAUCGGAAGAGCACACGU"
  pKd: 7.17
- Binder: "target 1 del3,del9 (mixed) RNA 1: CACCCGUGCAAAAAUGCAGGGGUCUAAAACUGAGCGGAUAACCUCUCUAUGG RNA 2: GGGAAUGGAUCCACAUCUACGAAUUCGUACCAUAGAGAGGUUUCCGCCACCGAGAUCGGAAGAGCACACGU"
  pKd: 7.40
- Binder: "target 1 insU 3' of 15,insC 3' of 13 (mixed) RNA 1: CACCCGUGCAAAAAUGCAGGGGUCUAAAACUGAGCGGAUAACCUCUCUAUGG RNA 2: GGGAAUGGAUCCACAUCUACGAAUUCGUACCAUAGAGUAGCGUUAUCCGCUCACCGAGAUCGGAAGAGCACACGU"
  pKd: 7.71

Please state pKd for every binder in the list that follows.
1. target 1 insA 3' of 12,insC 3' of 3 (mixed) RNA 1: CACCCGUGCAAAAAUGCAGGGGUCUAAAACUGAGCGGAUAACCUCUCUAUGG RNA 2: GGGAAUGGAUCCACAUCUACGAAUUCGUACCAUAGAGAGGAUUAUCCGCUCCACCGAGAUCGGAAGAGCACACGU
2. target 1 insA 3' of 3,insC 3' of 1 (mixed) RNA 1: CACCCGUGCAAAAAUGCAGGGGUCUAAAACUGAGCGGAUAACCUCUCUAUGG RNA 2: GGGAAUGGAUCCACAUCUACGAAUUCGUACCAUAGAGAGGUUAUCCGCUACACCCGAGAUCGGAAGAGCACACGU
3. target 2 MT 5'PFS UCG 3'PFS CAA (mixed) RNA 1: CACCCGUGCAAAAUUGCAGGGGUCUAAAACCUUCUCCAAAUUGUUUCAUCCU RNA 2: GGGAAUGGAUCCACAUCUACGAAUUCUCGAGGAUGAAACAAUUUGGAGAAGCAAAGAUCGGAAGAGCACACGU
4. target 1 insG 3' of 22,insA 3' of 15 (mixed) RNA 1: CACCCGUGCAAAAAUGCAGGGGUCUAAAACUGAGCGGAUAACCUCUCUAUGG RNA 2: GGGAAUGGAUCCACAUCUACGAAUUCGUACGCAUAGAGAAGGUUAUCCGCUCACCGAGAUCGGAAGAGCACACGU
5. target 2 MT 5'PFS UAA 3'PFS CUA (mixed) RNA 1: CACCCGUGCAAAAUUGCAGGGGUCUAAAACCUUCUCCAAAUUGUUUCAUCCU RNA 2: GGGAAUGGAUCCACAUCUACGAAUUCUAAAGGAUGAAACAAUUUGGAGAAGCUAAGAUCGGAAGAGCACACGU
6. target 3 insG 3' of 6,insC 3' of 2 (mixed) RNA 1: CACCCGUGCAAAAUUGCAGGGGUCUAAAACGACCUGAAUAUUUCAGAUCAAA RNA 2: GGGAAUGGAUCCACAUCUACGAAUUCGUUUUUGAUCUGAAAUAUUCGAGGUCCUGCAGAUCGGAAGAGCACACGU

Result block:
7.58
7.64
7.97
7.76
8.34
7.13

Please state pKd for every binder in the list that follows.
1. target 2 MT 5'PFS ACC 3'PFS UAU (mixed) RNA 1: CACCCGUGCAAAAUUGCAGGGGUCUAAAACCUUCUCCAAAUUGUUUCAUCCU RNA 2: GGGAAUGGAUCCACAUCUACGAAUUCACCAGGAUGAAACAAUUUGGAGAAGUAUAGAUCGGAAGAGCACACGU
2. target 1 C6G,A9C (mixed) RNA 1: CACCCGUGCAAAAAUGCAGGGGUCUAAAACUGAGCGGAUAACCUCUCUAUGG RNA 2: GGGAAUGGAUCCACAUCUACGAAUUCGUACCAUAGAGAGGUUCUCGGCUCACCGAGAUCGGAAGAGCACACGU

Result block:
1. 8.19
2. 7.93
